# procedureText: MHET released, HPLC; higher = more MHET released; extreme values may be limits of the assay
# measurementSetup: PET substrate: aFilm; 60 °C; pH 6.5; 24 h
reportedMetric: log10(MHET released) (log10 of the value in mM)
Form field - Quantity: MHET released; Unit: mM; Scale: log10

Known log10(MHET released) results, listed for orientation:
sequenceContent	numericResult
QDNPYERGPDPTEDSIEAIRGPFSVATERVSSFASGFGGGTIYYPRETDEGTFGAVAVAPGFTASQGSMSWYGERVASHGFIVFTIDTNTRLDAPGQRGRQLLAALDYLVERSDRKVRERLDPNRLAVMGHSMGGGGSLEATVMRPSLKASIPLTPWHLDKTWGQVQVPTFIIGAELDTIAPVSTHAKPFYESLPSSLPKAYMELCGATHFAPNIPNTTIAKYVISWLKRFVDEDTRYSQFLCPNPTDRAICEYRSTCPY [Cut190*SS]	-1.40
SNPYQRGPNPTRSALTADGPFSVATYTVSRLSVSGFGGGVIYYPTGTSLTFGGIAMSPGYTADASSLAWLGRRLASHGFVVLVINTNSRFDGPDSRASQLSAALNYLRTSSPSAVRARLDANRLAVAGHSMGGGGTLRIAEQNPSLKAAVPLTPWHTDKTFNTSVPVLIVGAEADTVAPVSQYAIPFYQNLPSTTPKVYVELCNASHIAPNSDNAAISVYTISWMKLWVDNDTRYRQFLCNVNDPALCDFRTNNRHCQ [LCC-A2]	0.09
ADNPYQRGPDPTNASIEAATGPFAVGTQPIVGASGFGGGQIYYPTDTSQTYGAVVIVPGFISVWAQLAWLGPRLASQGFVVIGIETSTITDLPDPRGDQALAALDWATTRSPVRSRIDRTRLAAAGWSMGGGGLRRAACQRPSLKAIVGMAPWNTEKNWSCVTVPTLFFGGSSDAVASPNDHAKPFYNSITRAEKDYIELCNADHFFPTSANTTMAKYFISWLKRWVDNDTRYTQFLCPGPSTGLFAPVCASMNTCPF [CaPETaseM9]	-0.97
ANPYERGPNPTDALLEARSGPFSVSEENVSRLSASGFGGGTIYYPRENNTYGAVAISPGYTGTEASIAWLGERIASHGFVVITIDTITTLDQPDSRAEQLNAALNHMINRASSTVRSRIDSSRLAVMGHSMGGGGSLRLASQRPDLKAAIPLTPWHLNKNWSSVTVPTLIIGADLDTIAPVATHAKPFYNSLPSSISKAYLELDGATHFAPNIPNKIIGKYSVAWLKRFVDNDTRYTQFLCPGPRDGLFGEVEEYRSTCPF [TfCut2]	-1.18
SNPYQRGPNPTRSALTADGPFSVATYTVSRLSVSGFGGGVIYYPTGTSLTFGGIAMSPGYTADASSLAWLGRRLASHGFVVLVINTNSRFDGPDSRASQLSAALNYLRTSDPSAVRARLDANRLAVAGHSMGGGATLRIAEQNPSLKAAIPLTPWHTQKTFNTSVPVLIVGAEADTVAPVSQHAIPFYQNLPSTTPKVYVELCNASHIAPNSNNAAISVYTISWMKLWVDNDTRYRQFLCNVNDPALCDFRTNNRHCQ [LCC-ICCG DAQI]	-0.25

Moving on to another sequence below.
Input line: Which log10(MHET released) reading was recorded for the sequence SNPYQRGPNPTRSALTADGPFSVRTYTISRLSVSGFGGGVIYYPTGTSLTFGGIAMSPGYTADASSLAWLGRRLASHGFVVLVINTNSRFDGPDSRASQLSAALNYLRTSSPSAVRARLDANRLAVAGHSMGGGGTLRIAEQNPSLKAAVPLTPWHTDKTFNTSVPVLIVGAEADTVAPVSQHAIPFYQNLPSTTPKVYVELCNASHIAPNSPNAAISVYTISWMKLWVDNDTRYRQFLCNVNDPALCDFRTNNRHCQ [LCC-ICCG RIP] ?
Output line: -0.32
